The measurements presented in this section are drawn from PubChem BioAssay AID2060354.

Consider the following molecules; for each one, report its viability, T/C.
# System: 519858-162-T-J1-PDC spheroid growth inhibition
# TEST METHOD NOTES: Anticancer human tumor 519858-162-T-J1-PDC patient-derived colon adenocarcinoma cell line growth inhibition [TAK]
# CONDITION CONTEXT: second compound 0.3 µM; first compound 0.1 µM; stronger effect = lower value; spheroids with HUVEC and MSC
# Description: Combinatorial screen of targeted agents with TAK-243 and ipatasertib in multi-cell type tumor spheroids […] Compounds. […] If the clinical Cmax for an agent had not been determined, the highest concentration tested was 10 microM. NCI60 Cell Culture. […] The optimal seeding densities for each of the cell lines at each time point assessed were determined prior to performing the concentration response studies. […]
One number for each entry, in %.

Illustrative cases are given below, each with its answer.
{"columns": ["MOLECULE", "viability, T/C [%]"],
 "data": [
  ["CC(C)(C)c1nc(-c2cccc(NS(=O)(=O)c3c(F)cccc3F)c2F)c(-c2ccnc(N)n2)s1 + CC(C)NCC(C(=O)N1CCN(c2ncnc3c2C(C)CC3O)CC1)c1ccc(Cl)cc1", 128],
  ["CC(C)n1nc(-c2ccc3oc(N)nc3c2)c2c(N)ncnc21 + CC(C)NCC(C(=O)N1CCN(c2ncnc3c2C(C)CC3O)CC1)c1ccc(Cl)cc1", 68.1]
]}

// moving on: another record for viability, T/C
viability, T/C reported for this molecule Cc1nc(NC(=O)N2CCCC2C(N)=O)sc1-c1ccnc(C(C)(C)C(F)(F)F)c1 (stereo not drawn) + CC(C)NCC(C(=O)N1CCN(c2ncnc3c2C(C)CC3O)CC1)c1ccc(Cl)cc1 : 88.2

###

# Test system: 519858-162-T-J1-PDC spheroid growth inhibition
# TEST METHOD NOTES: Anticancer human tumor 519858-162-T-J1-PDC cell line growth inhibition [TAK];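 further: spheroids exposed to drugs for 7 days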
# CONDITION CONTEXT: second compound 3 µM; first compound 0.1 µM; stronger effect = lower value; spheroids with HUVEC and MSC
Exercise: for every item that follows, state its recorded viability, T/C.
Numbers only, in %.

{"columns": ["COMPOUND", "viability, T/C / %"],
 "data": [
  ["CC(C)n1nc(-c2ccc3oc(N)nc3c2)c2c(N)ncnc21 + CC(C)NCC(C(=O)N1CCN(c2ncnc3c2C(C)CC3O)CC1)c1ccc(Cl)cc1", 72.2],
  ["CC(C)CC(NC(=O)CNC(=O)c1cc(Cl)ccc1Cl)B1OC(=O)CC(CC(=O)O)(C(=O)O)O1 (stereo unspecified) + CC(C)NCC(C(=O)N1CCN(c2ncnc3c2C(C)CC3O)CC1)c1ccc(Cl)cc1", 82.9],
  ["Cc1nc(NC(=O)N2CCCC2C(N)=O)sc1-c1ccnc(C(C)(C)C(F)(F)F)c1 (stereo unspecified) + CC(C)NCC(C(=O)N1CCN(c2ncnc3c2C(C)CC3O)CC1)c1ccc(Cl)cc1", 77.5],
  ["COc1c(OCCCN2CCOCC2)ccc2c3n(c(=NC(=O)c4cnc(N)nc4)nc12)CCN3 + CC(C)NCC(C(=O)N1CCN(c2ncnc3c2C(C)CC3O)CC1)c1ccc(Cl)cc1", 61.5]
]}

Please give viability, T/C for each item listed below.
1. COC1CC2CCC(C)C(O)(O2)C(=O)C(=O)N2CCCCC2C(=O)OC(C(C)CC2CCC(OCCO)C(OC)C2)CC(=O)C(C)C=C(C)C(O)C(OC)C(=O)C(C)CC(C)C=CC=CC=C1C (stereo unspecified) + CC(C)NCC(C(=O)N1CCN(c2ncnc3c2C(C)CC3O)CC1)c1ccc(Cl)cc1
2. CC(C)(C)c1nc(-c2cccc(NS(=O)(=O)c3c(F)cccc3F)c2F)c(-c2ccnc(N)n2)s1 + CC(C)NCC(C(=O)N1CCN(c2ncnc3c2C(C)CC3O)CC1)c1ccc(Cl)cc1

Key:
94.1
102
